Data provenance: patent US12187709B2

Reported (fold-selectivity) Cbl-b and C-Cbl Selectivity by item:
target: Cbl-b (Homo sapiens (Human)); experiment: Cbl-b LCK Ub TR-FRET assay (Cbl-b Lck HTRF); format: biochemical; conditions: ratio C-cbl Lck HTRF IC50 / Cbl-b Lck HTRF IC50
Sequence (Q13191 40-426): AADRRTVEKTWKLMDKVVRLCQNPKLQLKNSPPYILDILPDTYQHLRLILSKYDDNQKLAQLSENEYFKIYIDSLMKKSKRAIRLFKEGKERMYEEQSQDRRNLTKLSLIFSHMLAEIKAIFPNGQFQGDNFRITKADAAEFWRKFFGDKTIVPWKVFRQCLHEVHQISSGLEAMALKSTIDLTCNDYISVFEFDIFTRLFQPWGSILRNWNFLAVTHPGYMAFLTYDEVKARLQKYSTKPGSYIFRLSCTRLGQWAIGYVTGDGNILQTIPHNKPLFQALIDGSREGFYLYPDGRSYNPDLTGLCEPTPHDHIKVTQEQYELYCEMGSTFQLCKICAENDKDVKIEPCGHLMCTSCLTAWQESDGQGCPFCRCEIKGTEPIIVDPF
Write it as a number; the unit x goes unstated.

CO[C@H]1C[C@](c2cccc(N3Cc4c(cc(CNC5CC(C)(C)C5)cc4C(F)(F)F)C3=O)c2)(c2nncn2C)C1 [Compound 488]    2.4

Supply (fold-selectivity) Cbl-b and C-Cbl Selectivity value. Item: CO[C@H]1C[C@](c2cccc(N3Cc4c(cc(CN5CC(C)(O)C5)cc4C(F)(F)F)C3=O)c2)(c2nncn2C)C1 [Compound 478]
6.4

Supply (fold-selectivity) Cbl-b and C-Cbl Selectivity value. Item: Cn1cnnc1[C@]1(c2cccc(N3Cc4c(cc(CNC5(C)CCC5)cc4C(F)F)C3=O)c2)C[C@@H](Cl)C1 [Compound 447]
1.4

Supply (fold-selectivity) Cbl-b and C-Cbl Selectivity value. Item: Cn1cnnc1[C@]1(c2cccc(N3Cc4c(cc(CNC5(C)CCC5)cc4C(F)F)C3=O)c2)C[C@H](Cl)C1 [Compound 446]
1.7

Supply (fold-selectivity) Cbl-b and C-Cbl Selectivity value. Item: CO[C@H]1C[C@](c2cccc(N3Cc4c(cc(CNC5CC6C(C5)C6(F)F)cc4C(F)(F)F)C3=O)c2)(c2nncn2C)C1 (stereo partly drawn) [Compound 427]
3.1

Supply (fold-selectivity) Cbl-b and C-Cbl Selectivity value. Item: Cn1cnnc1C(F)(c1cccc(N2Cc3c(cc(CNC4(C)CCC4)cc3C(F)(F)F)C2=O)c1)C1(F)COC1 (stereo in doubt) [Compound 404]
1.0

Supply (fold-selectivity) Cbl-b and C-Cbl Selectivity value. Item: CO[C@H]1C[C@](c2cccc(N3Cc4c(cc(CN[C@@H](C)C5CCC5)cc4C(F)(F)F)C3=O)c2)(c2nncn2C)C1 [Compound 470]
1.0

Supply (fold-selectivity) Cbl-b and C-Cbl Selectivity value. Item: Cn1cnnc1[C@H](c1cccc(N2Cc3c(cc([C@@H](NC4(C)CCC4)C4CC4)cc3C(F)(F)F)C2=O)c1)C1COC1 (single isomer, unassigned) [Compound 457]
1.6

====

target: Human Cbl-b (residues 40-426) (Homo sapiens (Human), UniProt Q13191); experiment: Cbl-b SPR assay; format: binding; conditions: C-cbl SPR Kd vs Cbl-b SPR Kd
Sequence (Q13191 40-426): as above
measured_metric: Fold of selectivity (×)
Write it as a number; the unit × goes unstated.

// worked examples, Fold of selectivity included
Cn1cnnc1[C@@H](c1cccc(N2Cc3c(cc(CNC4(C)CCC4)cc3C(F)(F)F)C2=O)c1)C1CCC1    13
Cn1cnnc1C1(c2cccc(N3Cc4c(cc([C@H](O)CO)cc4C(F)(F)F)C3=O)c2)CCC1 (single isomer, unassigned)    4.0
CO[C@H]1C[C@](c2cccc(N3Cc4c(cc(CNC5CC(C#N)C5)cc4C(F)(F)F)C3=O)c2)(c2nncn2C)C1 (stereo partly drawn)    12
Cn1cnnc1[C@]1(c2cccc(N3Cc4c(cc(CNC5(C)CCC5)cc4C(F)(F)F)C3=O)c2)C[C@H](CC#N)C1    4.1
Cc1cc([C@@H](c2nncn2C)C2COC2)cc(N2Cc3c(cc(CNC4(C)CCC4)cc3C(F)(F)F)C2=O)c1 (single isomer, unassigned)    2.2
Cn1cnnc1[C@]1(c2cccc(N3Cc4c(Cl)cc(CNC5(C)CCC5)cc4C3=O)c2)C[C@@H](Cl)C1    6.0

Report the value of Fold of selectivity obtained on Human Cbl-b (residues 40-426) (Homo sapiens (Human), UniProt Q13191) for CC(C)[C@H]1CN(C)CCN1Cc1cc2c(c(C(F)(F)F)c1)CN(c1cc([C@]3(c4nncn4C)C[C@H](C)C3)cc(OC3CCCC3)n1)C2=O (single isomer, unassigned) .
3.0

Report the value of Fold of selectivity obtained on Human Cbl-b (residues 40-426) (Homo sapiens (Human), UniProt Q13191) for CO[C@H]1C[C@](c2cccc(N3Cc4c(cc(CN5CC6(CC6)C5)cc4C(F)(F)F)C3=O)c2)(c2nncn2C)C1 .
8.7

Report the value of Fold of selectivity obtained on Human Cbl-b (residues 40-426) (Homo sapiens (Human), UniProt Q13191) for CO[C@H]1C[C@](c2cccc(N3Cc4c(cc(CN[C@@H](C)C5CCC5)cc4C(F)(F)F)C3=O)c2)(c2nncn2C)C1 .
2.9

====

biological target: Human Cbl-b (residues 40-426) (Homo sapiens (Human), UniProt Q13191); assay: Cbl-b SPR assay; format: binding; settings: C-cbl SPR Kd vs Cbl-b SPR Kd
Answer 0 (no) if Fold of selectivity is under 8 ×, and 1 (yes) if it is 8 × or more.

Is reported Fold of selectivity greater than or equal to 8 × here: CO[C@H]1C[C@](c2cccc(N3Cc4c(cc([C@H](N)C(C)(C)C)cc4C(F)(F)F)C3=O)c2)(c2nncn2C)C1 (single isomer, unassigned) [Compound 360]
1 (yes)

Is reported Fold of selectivity greater than or equal to 8 × here: Cn1cnnc1[C@]1(c2cccc(N3Cc4c(cc(CNC5(C)CCC5)cc4C(F)(F)F)C3=O)c2)C[C@]2(CCO2)C1 [Compound 108]
1 (yes)

Is reported Fold of selectivity greater than or equal to 8 × here: Cn1cnnc1C1(c2cccc(N3Cc4c(cc(CNC5(C)CCC5)cc4C(F)(F)F)C3=O)c2)CC2(CN(CC(F)(F)F)C2)C1 [Compound 96]
0 (no)

Is reported Fold of selectivity greater than or equal to 8 × here: CO[C@H]1C[C@](c2cccc(N3Cc4c(cc(CN5CCOCC5)cc4C(F)(F)F)C3=O)c2)(c2nncn2C)C1 [Compound 417]
0 (no)

Is reported Fold of selectivity greater than or equal to 8 × here: Cn1cnnc1C1(c2cccc(N3Cc4c(cc(CNC5(C)CCC5)cc4C(F)(F)F)C3=O)c2)CC1 [Compound 283]
0 (no)

====

target: UniProtKB Q13191; experiment: Cbl-b LCK Ub TR-FRET assay (Cbl-b Lck HTRF); format: biochemical; conditions: ratio C-cbl Lck HTRF IC50 / Cbl-b Lck HTRF IC50
measured_metric: fold-selectivity (Cbl-b over C-cbl)

// worked examples, fold-selectivity (Cbl-b over C-cbl) included
CC[C@](F)(c1cccc(N2Cc3c(cc(CNC4(C)CCC4)cc3C(F)(F)F)C2=O)c1)c1nncn1C (single isomer, unassigned)    2.4x
CCOc1cc(N2Cc3c(cc(CNC4(C)CCC4)cc3C(F)(F)F)C2=O)cc([C@]2(c3nncn3C)C[C@@H](C)C2)c1    0.85x

Report the value of fold-selectivity (Cbl-b over C-cbl) obtained on UniProtKB Q13191 for Cn1cnnc1[C@@](F)(c1ccccc1)c1cccc(N2Cc3c(Cl)cc(CNC4(C)CCC4)cc3C2=O)c1 (single isomer, unassigned) .
2.0x

====

biological target: c-Cbl (residues 47-435) (Homo sapiens (Human))
Sequence (P22681 47-435): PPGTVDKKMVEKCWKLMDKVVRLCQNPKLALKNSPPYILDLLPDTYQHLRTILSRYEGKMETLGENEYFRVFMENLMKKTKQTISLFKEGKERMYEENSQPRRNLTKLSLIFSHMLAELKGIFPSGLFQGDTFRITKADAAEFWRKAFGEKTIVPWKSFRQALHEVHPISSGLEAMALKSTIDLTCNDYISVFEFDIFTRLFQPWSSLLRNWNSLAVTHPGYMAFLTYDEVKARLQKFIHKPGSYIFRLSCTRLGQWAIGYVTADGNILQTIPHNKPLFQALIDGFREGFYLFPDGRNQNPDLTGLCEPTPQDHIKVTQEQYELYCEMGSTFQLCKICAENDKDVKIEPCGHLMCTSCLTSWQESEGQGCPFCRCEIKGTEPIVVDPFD
Friendly reminder: Kd below 50 nM is true, at or above is false.

Dear colleague, could you confirm whether Kd of CO[C@H]1C[C@](c2cccc(N3Cc4c(cc(CNCCOC(F)F)cc4C(F)(F)F)C3=O)c2)(c2nncn2C)C1 falls below 50 nM? Thanks.
true

Dear colleague, could you confirm whether Kd of CO[C@H]1C[C@](c2cccc(N3Cc4c(cc(CN5CCN(C)C[C@@H]5C(C)C)cc4C(F)(F)F)C3=O)c2)(c2nncn2C)C1 falls below 50 nM? Thanks.
true

Dear colleague, could you confirm whether Kd of Cn1cnnc1[C@H](C[C@H]1COCCO1)c1cccc(N2Cc3c(cc(CNC4(C)CCC4)cc3C(F)(F)F)C2=O)c1 falls below 50 nM? Thanks.
false

Dear colleague, could you confirm whether Kd of Cn1cnnc1[C@]1(c2cccc(N3Cc4c(Cl)cc(CNC5(C)CCC5)cc4C3=O)c2)C[C@H](Cl)C1 falls below 50 nM? Thanks.
true

Dear colleague, could you confirm whether Kd of CO[C@H]1C[C@](c2cccc(N3Cc4c(cc(CN5CCC5)cc4C(F)(F)F)C3=O)c2)(c2nncn2C)C1 falls below 50 nM? Thanks.
false

Dear colleague, could you confirm whether Kd of C[C@H](NC1(C)CCC1)c1cc2c(c(C(F)(F)F)c1)CN(c1cccc([C@@H](c3nncn3C)C3COC3)c1)C2=O (single isomer, unassigned) falls below 50 nM? Thanks.
false

Dear colleague, could you confirm whether Kd of CO[C@H]1C[C@](c2cc(OC3COC3)cc(N3Cc4c(cc(CNC5(C)CCC5)cc4C(F)(F)F)C3=O)c2)(c2nncn2C)C1 falls below 50 nM? Thanks.
false

Dear colleague, could you confirm whether Kd of Cn1cnnc1[C@@H](c1cccc(N2Cc3c(cc(CNC4(C)CCC4)cc3C(F)(F)F)C2=O)c1)[C@H]1C[C@@H](C)C1 (single isomer, unassigned) falls below 50 nM? Thanks.
true

Dear colleague, could you confirm whether Kd of C[C@@H](CC#N)Nc1cc(C2(c3nncn3C)CC3(COC3)C2)cc(N2Cc3c(cc(CNC4(C)CCC4)cc3C(F)(F)F)C2=O)n1 falls below 50 nM? Thanks.
true

Dear colleague, could you confirm whether Kd of Cn1cnnc1C1(c2cccc(N3Cc4c(cc(CNC5(C)CCC5)cc4C(F)(F)F)C3=O)c2)CCOCC1 falls below 50 nM? Thanks.
false

Dear colleague, could you confirm whether Kd of CO[C@H]1C[C@](c2cccc(N3Cc4c(cc(CN5CCCCCC5)cc4C(F)(F)F)C3=O)c2)(c2nncn2C)C1 falls below 50 nM? Thanks.
false

Dear colleague, could you confirm whether Kd of C=C[C@@H](C)Nc1cc(N2Cc3c(cc(CNC4(C)CCC4)cc3C(F)(F)F)C2=O)cc([C@]2(c3nncn3C)C[C@H](OC)C2)c1 (single isomer, unassigned) falls below 50 nM? Thanks.
true
